Target: T1, full-length human DR6 on transfected cells (human, UniProt O75509 42-655)
T1 construct: also called Death Receptor-6; TNFRSF21
T1 sequence: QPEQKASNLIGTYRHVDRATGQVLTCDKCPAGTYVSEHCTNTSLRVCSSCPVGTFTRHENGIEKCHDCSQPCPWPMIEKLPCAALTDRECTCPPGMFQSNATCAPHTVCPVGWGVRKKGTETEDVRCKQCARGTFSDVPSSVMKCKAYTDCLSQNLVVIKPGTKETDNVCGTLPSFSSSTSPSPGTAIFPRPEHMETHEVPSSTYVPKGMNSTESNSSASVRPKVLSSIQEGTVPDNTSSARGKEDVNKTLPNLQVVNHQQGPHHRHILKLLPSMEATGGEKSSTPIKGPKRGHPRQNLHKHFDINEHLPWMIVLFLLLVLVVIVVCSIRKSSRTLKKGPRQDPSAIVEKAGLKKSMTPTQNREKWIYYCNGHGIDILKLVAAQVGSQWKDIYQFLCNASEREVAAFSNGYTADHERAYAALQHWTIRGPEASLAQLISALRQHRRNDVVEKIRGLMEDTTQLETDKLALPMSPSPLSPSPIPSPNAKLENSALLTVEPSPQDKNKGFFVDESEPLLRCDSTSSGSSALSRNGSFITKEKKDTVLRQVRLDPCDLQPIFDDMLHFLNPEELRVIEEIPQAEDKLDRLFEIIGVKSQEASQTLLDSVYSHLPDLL
Test: FACS on 293E cells transfected with full-length human DR6
Value Type: binding result

- M66-B03 (Fab, V domains shown) VH: EVQLLESGGGLVQPGGSLRLSCAASGFTFSPYWMSWVRQAPGKGLEWVSVIYPSGGHTYYADSVKGRFTISRDNSKNTLYLQMNSLRAEDTAVYYCARPGFGAAFDYWGPGTLVTVSS VL: DIQMTQSPSSVSASVGDRVTITCRASQGISSWLAWYQQKPGKAPKLLIYAASSLQSGVPSRFSGSGSGTDFTLTISSLQPEDFATYYCQQANSFPLTFGGGTKVEIK: binds
- M53-E04 (Fab, V domains shown, Human Fab from a phage display library) VH: EVQLLESGGGLVQPGGSLRLSCAASGFTFSNYEMSWVRQAPGKGLEWVSSIYSSGGETLYADSVKGRFTISRDNSKNTLYLQMNSLRAEDTAVYYCARDGAADYWGQGTLVTVSS VL: QSELTQPPSASGTPGQWVTISCSGSTSNIGNNYVYWYQQLPGTAPKLLIYTNNQRPSGVPDRFSGSKSGTSASLAISGLRSEDEADYYCATWDDSLYAPVFGGGTKVTVL: binds
- M53-F04 (Fab, V domains shown, Human Fab from a phage display library) VH: EVQLLESGGGLVQPGGSLRLSCAASGFTFSEYTMHWVRQAPGKGLEWVSVISSSGGRTVYADSVKGRFTISRDNSKNTLYLQMNSLRAEDTAVYYCARDLSNYMDYWGQGTLVTVSS VL: DIQMTQSPATLSLSPGERATLSCRASQTVSNYLAWYQQKPGQAPRLLIYDASNRATGIPARFSGSGSGTDFTLTISSLEPEDFAVYYCQQRSKWLSFGGGTKVEIK: binds
- M50-H01 (Fab, V domains shown, Human Fab from a phage display library) VH: EVQLLESGGGLVQPGGSLRLSCAASGFTFSDYPMMWVRQAPGKGLEWVSRISPSGGHTIYADSVKGRFTISRDNSKNTLYLQMNSLRAEDTAVYYCAKDWHGGGAFDIWGQGTMVTVSS VL: DIQMTQSPSSVSASVGDRVTITCRASQGIRSWLAWYQQKPGKAPKLLIYDASTLQSGVPSRFRGGGSGTDFTLTISSLQPEDFATYYCQQSYSTPLTFGGGTKVEIK: binds
- M51-H09 (Fab, V domains shown, Human Fab from a phage display library) VH: EVQLLESGGGLVQPGGSLRLSCAASGFTFSPYSMTWVRQAPGKGLEWVSSIVPSGGKTWYADSVKGRFTISRDNSKNTLYLQMNSLRAEDTAVYYCARTNLSYFDYWGQGTLVTVSS VL: QSELTQPPSASGSPGQSVTISCTGTSNDVGSYNYISWFQQHPGKAPKLMIYEVNKRPSGVPDRFSGSKSDNTASLTVSGLQAEDEADYYCTSYAGSHKWVFGGGTKLTVL: binds

query: Could you share which binding result value was measured for M67-G02 (Fab, V domains shown, Human Fab from a phage display library) VH: EVQLLESGGGLVQPGGSLRLSCAASGFTFSRYSMQWVRQAPGKGLEWVSVISPSGGSTMYADSVKGRFTISRDNSKNTLYLQMNSLRAEDTAVYYCARESYSSSWYSGYYYYYGMDVWGQGTTVTVSS VL: DIQMTQSPASLSASVGDRVTITCRASQTIAGYLNWYQQTPGKAPNLLIYDASRLQSGVPSRFSGSGSGTDFTLSISGLQPEDFGTYYCQQSYTIPLTFGGGTKVEIK ?
result: binds
